B1: OAS1 (parent)
chain: YIGTHEYPHFSHRPSTLQAASTPQ

- Variants of: B1
- MEASUREMENT NOTES: protein stability index of a GFP-peptide fusion (GPS, HEK-293T) (PSI 1-6); higher = more stable;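 also: lentivirally expressed fusions sorted by FACS into six bins by GFP to DsRed ratio, PSI derived from sequencing read proportions per bin multiplied by bin number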
- EXPERIMENTAL CONDITIONS: c terminus: a fixed tail appended
RESULT TYPE: protein stability index
# print the numeric value only

Q24W : 2.25

Fill in protein stability index for record F10K 2.73

Identify protein stability index associated with the variant S11N 2.31

Tell me measured protein stability index for L17A please. 1.84

Return the recorded protein stability index value; entry: T22R 1.68

Specify protein stability index for E6L and stop. 2.99

Give me measured protein stability index, please, for this variant: T22A 2.51

Specify measured protein stability index for H9E . 3.17

Fill in protein stability index for record T16K 2.08

Could you please provide reported protein stability index for S15P ? Thanks! 1.62

Return protein stability index (reported value) for this variant: H5M 2.14

Note down protein stability index recorded for R13F 1.33

Fill in protein stability index for record L17E 2.06

Given the variant F10M , write its reported protein stability index. 2.73

Supply recorded protein stability index for I2K here. 3.47

For the variant P14R , give its reported protein stability index. 1.9

Please look at this variant and report its protein stability index: H9V 1.78

Give a short answer stating reported protein stability index for T4Y . 1.84

Measured values drawn from the supplement of paper PMC10567573 for this set.
